Data provenance: PubChem BioAssay AID1159580

Assay: chemical genetic growth profiling, strain panel (AID 1159580);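 further: tested at 20 µM; growth read once vehicle control cultures reached saturation at 30 °C; 1 = growth at the plate median or of vehicle wells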
Settings: S. cerevisiae deletion strains, growth OD, locus YOL147C, strain pex11, stronger effect = lower value
Hit rate of the full screen: of about 5,500 compounds, about 2,000 (36%) were called active. Not shown: some 18% with an inconclusive outcome. This is one part of the list.
measure: normalized growth
Give bare numbers.

- compound: "CCc1ccc(CCOc2ccc(CC3SC(=O)NC3=O)cc2)nc1 (centres undefined)"
  endpointValue: 0.996
- compound: "C1CCc2nnnn2CC1"
  endpointValue: 1.01
- compound: "COC(=O)C1[C@H]2C[C@H]3c4[nH]c5ccccc5c4CCN3C[C@@H]2CC[C@@H]1O (some centres undefined)"
  endpointValue: 1.02
- compound: "CC1(C)C2CC[C@]3(C)C(C(=O)C=C4[C@H]5C[C@@](C)(C(=O)O)CC[C@]5(C)CC[C@]43C)[C@@]2(C)CC[C@@H]1O (some centres undefined)"
  endpointValue: 1.02
- compound: "O=C(O)C1CC([C@@H]2CCCCN2)CN2CCCCC12 (some centres undefined)"
  endpointValue: 0.995
- compound: "CC1(C)S[C@@H]2[C@H](NC(=O)[C@H](NC(=O)N3CCNC3=O)c3ccccc3)C(=O)N2C1C(=O)O (some centres undefined)"
  endpointValue: 0.985
- compound: "NC[C@@H]1O[C@H](O[C@@H]2[C@@H](CO)OC(O[C@@H]3[C@@H](O)[C@H](N)C[C@H](N)[C@H]3OC3O[C@H](CN)[C@@H](O)[C@H](O)[C@H]3N)[C@@H]2O)[C@H](N)[C@@H](O)[C@@H]1O (some centres undefined)"
  endpointValue: 1.01
- compound: "Cn1cc[nH]c1=S"
  endpointValue: 0.973

Switching to the query record.
So for COC(=O)[C@@H]1C(O)CC[C@H]2CN3CCc4c([nH]c5ccccc45)[C@@H]3C[C@@H]21 (some centres undefined) , the logged normalized growth turned out to be 0.99

###

Assay: chemical genetic growth profiling, strain panel (AID 1159580)
Conditions: S. cerevisiae deletion strains, growth OD, locus YOR069W, strain VPS5
Hit rate of the full screen: of about 5,500 compounds, about 2,000 (36%) were called active. About 18% were inconclusive and are not listed. No stated cut-off is given here; in the data, active means normalized growth mostly below about 0.91 (no sharp cut-off); inconclusive means no clear call, values can overlap the other calls; inactive means mostly above about 0.92. The list shows a part of the results.
Form entry, call: pick from active, inactive

// below: answered compounds
- compound: "COc1ccc(-c2coc3c(O)c(OC)ccc3c2=O)cc1"
  labelClass: "inactive"
- compound: "COc1ccc(-c2coc3c(OC)c(OC)cc(OC)c3c2=O)cc1"
  labelClass: "inactive"
- compound: "COc1cc(O)c(C(=O)c2ccccc2)cc1O"
  labelClass: "inactive"
- compound: "COc1ccc(C(=O)c2ccccc2O)c(O)c1"
  labelClass: "inactive"
- compound: "COc1cc2c(cc1OC)C(=O)C(CC1CCN(Cc3ccccc3)CC1)C2 (stereo not drawn)"
  labelClass: "active"

Q: Record lookup: outcome of this test for `COc1ccc(-c2coc3c(OC)c(OC)cc(O)c3c2=O)cc1` ?
Result: inactive

Q: Record lookup: outcome of this test for `COc1c(O)cc2oc3cc(O)c(CC=C(C)C)c(O)c3c(=O)c2c1CC=C(C)C` ?
Result: active

Q: Record lookup: outcome of this test for `COc1cc(O)c2c(=O)cc(C)oc2c1CC=C(C)C` ?
Result: inactive

###

Test: chemical genetic growth profiling, strain panel (AID 1159580)
Conditions: S. cerevisiae deletion strains, growth OD, locus YOR290C, strain snf2, stronger effect = lower value
In all, about 5,500 compounds went through this assay and about 2,000 (36%) were called active. Not shown: some 18% with an inconclusive outcome. This is one part of the list.
measure: normalized growth
One number for each entry.

Examples with answers:
- molecule: "CCc1nc(N)nc(N)c1-c1ccc(Cl)cc1"
  normalized growth: 0.896
- molecule: "c1ccc(CN(CC2=NCCN2)c2ccccc2)cc1"
  normalized growth: 0.969
- molecule: "CC(=O)OC1CC23CC24CCC(OC2OCC(O)C(O)C2O)C(C)(C)C4CCC3C2(C)CC3OC4(CC(C)C3C12C)OC(O)C1(C)OC41 (stereo unspecified)"
  normalized growth: 0.959
- molecule: "CC[C@@H](CO)NCCN[C@@H](CC)CO"
  normalized growth: 0.986
- molecule: "COc1cccc([C@]2(O)CCCC[C@H]2CN(C)C)c1"
  normalized growth: 0.966

Switching to the query record.
So for `c1ccc(CC2=NCCN2)cc1` , the logged normalized growth turned out to be 1

###

Assay: chemical genetic growth profiling, strain panel (AID 1159580);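 further: tested at 20 µM; growth read once vehicle control cultures reached saturation at 30 °C; 1 = growth at the plate median or of vehicle wells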
Settings: S. cerevisiae deletion strains, growth OD, locus YML094W, strain GIM5, stronger effect = lower value
Hit rate of the full screen: of about 5,500 compounds, about 2,000 (36%) were called active. Inconclusive results (about 18%) are left out. The list shows a part of the results.
I'd be grateful if you could share measured normalized growth for these entries.

Examples with answers:
- compound: "CC1(C)/C(=N/OC(=O)c2cccc(C(F)(F)F)c2)[C@]2(C)CCC1C2"
  normalized growth: "1.18 [resistant] (active)"
- compound: "O=C(Nc1ccccc1C(=O)NC1CCCCNC1=O)c1cccs1 (centres undefined)"
  normalized growth: "1.02 (inactive)"
- compound: "CC(=O)/C(=C\\Nc1ncccn1)S(=O)(=O)c1ccc(Cl)cc1"
  normalized growth: "0.97 (inactive)"
- compound: "CC(C)(C)OC(=O)N1CCC(C(N)=O)CC1"
  normalized growth: "1.03 (inactive)"
- compound: "CCOC(=O)COc1ccc2c(c1)OC(C)(C)CC2=O"
  normalized growth: "1.02 (inactive)"

// batch mode: one normalized growth value per listed entry
1. Cc1ccc(Oc2ccc(C)cc2)cc1
2. CCCC(C)(SCC(=O)O)SCC(=O)O
3. Cc1ccc2cc(C)c(C)cc2c1
4. CNC(=S)NN=C(N)c1ccccn1
5. Nc1cc(-c2ccc(Cl)cc2)nc(N)n1
6. CN(C)/C=C1\C(=O)c2ccccc2N(C)S1(=O)=O

Result:
1: 1.06 (inactive); 2: 0.993 (inactive); 3: 1 (inactive); 4: 0.831 (active); 5: 1.03 (inactive); 6: 1.02 (inactive)

// batch mode: one normalized growth value per listed entry
1. CC(=O)OCc1ccc(/C=C(\C#N)S(=O)(=O)c2ccc(Cl)cc2)o1
2. CCCCOc1cc(C(=O)O)ccc1OC
3. CC(SCc1ccccc1)C(=O)O (centres undefined)

Result:
1. 0.993 (inactive)
2. 1 (inactive)
3. 1.02 (inactive)

###

Assay: chemical genetic growth profiling, strain panel (AID 1159580);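 further: tested at 20 µM; growth read once vehicle control cultures reached saturation at 30 °C; 1 = growth at the plate median or of vehicle wells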
Conditions: S. cerevisiae deletion strains, growth OD, locus YNL298W, strain CLA4 (second series), stronger effect = lower value
The campaign covered roughly 5,500 compounds. About 2,000 (36%) were called active. Roughly 18% stayed inconclusive and do not appear here. This is one part of the list.
I'd be grateful if you could share measured normalized growth for these entries.
Give bare numbers.

Examples with answers:
- compound: "CNC(=S)NN=C(N)c1ccccn1"
  measure: "normalized growth"
  endpointValue: 0.75
- compound: "FC(F)(F)Oc1ccc(-c2noc(CSc3ccc(Br)cc3)n2)cc1"
  measure: "normalized growth"
  endpointValue: 0.969
- compound: "Cc1cc(C)c2c(-n3cccc3)c(C(=O)c3ccc(Cl)cc3)sc2n1"
  measure: "normalized growth"
  endpointValue: 0.984
- compound: "CN1C(=O)CN=C(c2ccccc2)c2ccccc21"
  measure: "normalized growth"
  endpointValue: 1.01
- compound: "COC(=O)c1c(C)[nH]c(C)c1C(C)=O"
  measure: "normalized growth"
  endpointValue: 1.01

// batch mode: one normalized growth value per listed entry
1. FC(F)(F)c1ccnc(-n2ccc(-c3cccs3)n2)n1
2. N#Cc1cnn(-c2ccccc2)c1-n1cccc1
3. O=C(O)c1cnn(-c2ccccc2)c1C(F)(F)F
4. Cc1cc(=O)n2c(-c3ccc(Cl)cc3)csc2n1
5. CC(SCc1ccccc1)C(=O)O (configuration not stated)
6. O=C(Nc1ccccc1C(=O)NC1CCCCNC1=O)c1cccs1 (configuration not stated)
7. O=[N+]([O-])c1cc(C(F)(F)F)ccc1N1CCN(CCO)CC1

Result:
[0.815, 0.967, 1.01, 0.947, 1.04, 1.03, 0.941]

###

Test: chemical genetic growth profiling, strain panel (AID 1159580);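 further: tested at 20 µM; growth read once vehicle control cultures reached saturation at 30 °C; 1 = growth at the plate median or of vehicle wells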
Conditions: S. cerevisiae deletion strains, growth OD, locus YKL101W, strain HSL1, stronger effect = lower value
Among all 5,500 compounds or so, about 2,000 (36%) were called active. Roughly 18% stayed inconclusive and do not appear here. The list shows a part of the results.
I'd be grateful if you could share measured normalized growth for these entries.

- molecule: "O=C(Nc1cc(Cl)cc(Cl)c1)Nc1cc(-c2cccs2)[nH]n1"
  normalized growth: "0.861 (inactive)"
- molecule: "COc1ccc(NC(=O)O/N=C(/N)c2ccc(Oc3c(Cl)cncc3Cl)cc2)cc1"
  normalized growth: "0.881 (inactive)"
- molecule: "Cc1cc(SCc2[nH]nc3oc(=O)cc(C)c23)c(Cl)cc1Cl"
  normalized growth: "1.01 (inactive)"
- molecule: "CCC(C)c1ccccc1NC(=O)c1cc2cccc([N+](=O)[O-])c2[nH]1 (stereo unspecified)"
  normalized growth: "0.83 (inactive)"
- molecule: "Cc1c(C(=O)N2CCCCC2)cc(-c2ccccc2)n1-c1ccccc1"
  normalized growth: "0.884 (inactive)"

// batch mode: one normalized growth value per listed entry
1. C=CC(=O)N1CCc2cc([N+](=O)[O-])ccc21
2. CC(C)(C)C1=NN(c2nc3ccc(Cl)cc3s2)C(=O)C1
3. N#C/C(=C\c1ccccc1Sc1ccc(Cl)cc1)S(=O)(=O)c1ccccn1
4. O=C(Nc1cc(Cl)cc(Cl)c1)Nc1cc(-c2ccco2)[nH]n1
5. O=C(NCc1ccco1)c1ccc(Oc2cc(Cl)cc(Cl)c2)o1
6. NCCCN=c1ccc2c3c1c(O)c1c(O)ccc(=O)c1c3[nH]n2CCNCCO

Result:
0.46 (active)
0.0952 (active)
0.875 (inactive)
0.38 (active)
0.917 (inactive)
0.957 (inactive)
